Target: human recombinant GST-SIRT5 (Homo sapiens)
Sequence (Q9NXA8 37-310): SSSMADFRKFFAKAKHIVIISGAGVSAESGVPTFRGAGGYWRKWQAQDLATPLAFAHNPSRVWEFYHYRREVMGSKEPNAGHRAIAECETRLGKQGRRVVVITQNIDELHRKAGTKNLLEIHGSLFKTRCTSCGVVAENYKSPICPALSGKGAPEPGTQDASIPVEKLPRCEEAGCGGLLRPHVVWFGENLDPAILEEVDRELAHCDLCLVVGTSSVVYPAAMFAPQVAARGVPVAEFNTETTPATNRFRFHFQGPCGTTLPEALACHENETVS
Assay: HPLC-based in vitro sirtuin inhibition assay, SIRT5-catalyzed deacylation (desuccinylation)
Conditions: GST-SIRT5 370 nM, 0.8 mM β-NAD+, 0.88 mM succinyl-lysine H3 peptide substrate, 37 °C, 5 min; estimated from Dixon plots
Text: The following materials were purchased from commercial vendors for the sirtuin inhibition assay and the pronase digestion assay, and were used as received without further treatment. […]
pIC50: −log10 of the molar value. *1 amine or outer side, *2 acyl side, *3 side chain or, on linkers, in order; H or OH if unused. Where a SMILES comes first, the peptide text is derived from it. [ ]: non-standard residue; d: D form. X1 = O=C(O)CCNC(=S)NCCCC[C@H](N[*:1])C(=O)[*:2]

compound	assayed_target	pIC50
CC(=O)N[C@@H](C)C(=O)N[C@@H](CCCNC(=N)N)C(=O)N[C@@H](CCCCNC(=S)NCCC(=O)O)C(=O)N[C@@H](CO)C(=O)N[C@H](C(N)=O)[C@@H](C)O [Compound 6] (Ac-AR[X1]ST-NH2)	human recombinant GST-SIRT5 (Homo sapiens)	5.12
